- tgt: bombesin receptor of rat brain membranes (rat)
- assay method text: 125I-Bombesin competition, rat brain membranes
Square brackets hold non-standard residues; d marks the D form. Ends that are not written are not given here. Nle = CCCC[C@H](N)C(=O)O
Label key: condition met means % Inhibition under 40%; condition not met means % Inhibition of 40% or more.

binder="[dF]QWCVGHLL-NH2 (not fully specified (bridges); printed as D-Phe-Gln-Trp-Cys-Val-Gly-His-Leu-Leu-NH2; also: Re(V)=O complexed at Cys (N3S1 chelate)) [metallopeptide 9-6]" assigned_class="condition not met"
binder="Ac-AQCLGNQWAVGHL[Nle]-NH2 (also: Re(V)=O N3S1 chelate at Cys3 (from ReOCl3(PPh3)2)) [metallopeptide 7-12]" assigned_class="condition not met"
binder="QWAVC-NH2 (also: bridge at 5 via oxorhenium(V) N3S1 chelate, other end not in the chain) [metallopeptide 11-13]" assigned_class="condition met"
binder="XQRLGNQWAVGHCX (Pyr 1; Nle 14; C-terminal amide; Re complexed at Cys 13) [metallopeptide 7-2]" assigned_class="condition not met"
binder="[dF]QWVCVHLL-NH2 (bridge (positions not given here) via ReOCl3(PPh3)2; also: oxorhenium(V) N3S1 tetradentate complex at Cys 5) [metallopeptide 12-3]" assigned_class="condition met"

Input line: Report whether reported % Inhibition is lower than 40% (strictly) for WAVCH-NH2 (also: bridge at 4 via oxorhenium(V) N3S1 chelate, other end not in the chain) [metallopeptide 11-11]
Output line: condition met
